B1: Osa-1-4 twister ribozyme (parent)
chain: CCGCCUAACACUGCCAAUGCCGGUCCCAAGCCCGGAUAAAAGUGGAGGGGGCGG

variants of: B1; assay: self-cleavage, relative activity (ratio to wild type); higher = more cleavage; co-transcriptional
Give measured self-cleavage for each item. Keep answers brief.
Give bare numbers.

Below are worked cases with known answers.
sequenceRecord	self-cleavage
CCGCCUAACACUGCCAAUGCCGGACACAAGCCCGGAUAAAAGUGGAGGGGGCGG [C26A U24A]	0.03
CCGCCUAACACAGCCAAUGCCGGUCCCAAGGCCGGAUAAAAGUGGAGGGGGCGG [C31G U12A]	0.08
CCGCCUAACACUGCCAAUGCCGGUCCCAAGCCCCGAUAAAAGUGGACGGGGCGG [G34C G47C]	0.05
CCGCCUAACACUGCCAAUGCCGGUCGCAAUCCCGGAUAAAAGUGGAGGGGGCGG [C26G G30U]	0.03
CCGCCUCACACUGCCAAUGCCGGUCCCAAGCCCGGAUAAAAGUGGACGGGGCGG [A7C G47C]	0.02

Batch of 2 variants: report self-cleavage for each.
1. CCGCCUAACACUGCCAAUGCGGAUCCCAAGCCCGGAUAAAAGUGGAGGGGGCGG [C21G G23A]
2. CCGCCUAACACUGCCAAUGCCGGACCCAAGCCCGGAUAAAGGUGGAGGGGGCGG [A41G U24A]

0.07
0.07

Batch of 3 variants: report self-cleavage for each.
1. CCGCCUAACGCUGACAAUGCCGGUCCCAAGCCCGGAUAAAAGUGGAGGGGGCGG [A10G C14A]
2. CCGCCUGACACUGCCAAUGCCGGUCCUAAGCCCGGAUAAAAGUGGAGGGGGCGG [A7G C27U]
3. CCGCCUAACACUGCCAAUCCCGGUCCCAAGCCCGGAUAAUAGUGGAGGGGGCGG [A40U G19C]

1. 0.11
2. 0.1
3. 0.04
